Please provide measured Thrombin* (IC50 nM) for the entries that follow.
- Target under test: recombinant thrombin (#1473-SE-010, R&D Systems) (UniProt P00734 44-622)
- Measurement notes: cell-based or functional assay
Positions of bridges follow the written chain, without caps; N, C: chain ends. kbt = C-terminal Arg ketobenzothiazole

Problem: I'd like to know its Thrombin* (IC50 nM). The binder in question is Ac-GQFR-kbt [MM3122 Ac-GQFR-kbt]
Solution: > 20 nM

Problem: I'd like to know its Thrombin* (IC50 nM). The binder in question is Ac-LQFR-kbt [MM3131 Ac-LQFR-kbt]
Solution: > 20 nM

Problem: I'd like to know its Thrombin* (IC50 nM). The binder in question is Ac-MQFR-kbt [MM3130 Ac-MQFR-kbt]
Solution: > 20 nM

Problem: I'd like to know its Thrombin* (IC50 nM). The binder in question is Ac-Gln-Phe-Arg-kbt [MM3144 Ac-QFR-kbt]
Solution: > 20 nM

Problem: I'd like to know its Thrombin* (IC50 nM). The binder in question is Ac-DLKR-kbt (lactam 1-3; not fully specified; printed as Cyclo(DLK)R-kbt; also: N-terminal acetyl described as 6-acetamido) [Cyclo(DLK)R-kbt, VD2173]
Solution: 700 nM

Problem: I'd like to know its Thrombin* (IC50 nM). The binder in question is Ac-DQKR-kbt (lactam 1-3; also: N-terminal acetyl described as 6-acetamido) [Cyclo(DQK)R-kbt, VD3152]
Solution: > 20000 nM

Problem: I'd like to know its Thrombin* (IC50 nM). The binder in question is Ac-PQFR-kbt [MM3123 Ac-PQFR-kbt]
Solution: > 20 nM

Problem: I'd like to know its Thrombin* (IC50 nM). The binder in question is Ac-IQFR-kbt [MM3116 Ac-IQFR-kbt]
Solution: > 20 nM

Problem: I'd like to know its Thrombin* (IC50 nM). The binder in question is Ac-DMKR-kbt (lactam 1-3; not fully specified; printed as Cyclo(DMK)R-kbt; also: N-terminal acetyl described as 6-acetamido) [Cyclo(DMK)R-kbt, VD3173]
Solution: > 20000 nM

Origin of measurements: patent US20220380407A1
